# assay_overview: self-splicing fitness, log relative to wild type (ln ratio); higher = more splicing; Tetrahymena group I intron in knt gene, E. coli kanamycin selection, DiMSum; sequences stand for … in CUCUCU…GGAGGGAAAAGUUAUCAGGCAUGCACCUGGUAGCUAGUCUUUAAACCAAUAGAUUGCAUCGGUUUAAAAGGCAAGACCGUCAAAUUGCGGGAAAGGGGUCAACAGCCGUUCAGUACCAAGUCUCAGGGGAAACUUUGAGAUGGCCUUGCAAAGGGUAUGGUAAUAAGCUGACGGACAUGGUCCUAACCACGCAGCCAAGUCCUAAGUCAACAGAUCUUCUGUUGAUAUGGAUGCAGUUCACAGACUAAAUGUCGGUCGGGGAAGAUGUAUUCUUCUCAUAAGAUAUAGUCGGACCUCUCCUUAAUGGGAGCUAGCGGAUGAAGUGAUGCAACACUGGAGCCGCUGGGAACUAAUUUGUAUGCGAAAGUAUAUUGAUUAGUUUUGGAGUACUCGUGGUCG;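 note: selection with 25 µg/mL kanamycin versus none on LB agar overnight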
# run_conditions: 37 °C
Collected self-splicing fitness (ln) values appear next to each entry.
Answer with a bare number; do not write a unit.

Below are worked cases with known answers.
[[record]]
primary_sequence = "CCUUAGCAAUAUUACGGGCG"
recorded_measurement = -0.95

[[record]]
primary_sequence = "AGGGAGCAAUAUUACGUUGA"
recorded_measurement = -2.8

[[record]]
primary_sequence = "GGUGAGCAAUAUUACGGAAU"
recorded_measurement = 0.428

[[record]]
primary_sequence = "CGUAAGCAAUAUUACGCUGA"
recorded_measurement = -1.42

[[record]]
primary_sequence = "GAACAGCAAUAUUACGCUGA"
recorded_measurement = -2.04


Let's switch to this sequence now.
Request: Requested field: self-splicing fitness (ln). Item: CAUGAGCAAUAUUACGUAUC
Response: -3.15

###

# assay_overview: self-splicing fitness, log relative to wild type (ln ratio); higher = more splicing; Tetrahymena group I intron in knt gene, E. coli kanamycin selection, DiMSum; sequences stand for … in CUCUCU…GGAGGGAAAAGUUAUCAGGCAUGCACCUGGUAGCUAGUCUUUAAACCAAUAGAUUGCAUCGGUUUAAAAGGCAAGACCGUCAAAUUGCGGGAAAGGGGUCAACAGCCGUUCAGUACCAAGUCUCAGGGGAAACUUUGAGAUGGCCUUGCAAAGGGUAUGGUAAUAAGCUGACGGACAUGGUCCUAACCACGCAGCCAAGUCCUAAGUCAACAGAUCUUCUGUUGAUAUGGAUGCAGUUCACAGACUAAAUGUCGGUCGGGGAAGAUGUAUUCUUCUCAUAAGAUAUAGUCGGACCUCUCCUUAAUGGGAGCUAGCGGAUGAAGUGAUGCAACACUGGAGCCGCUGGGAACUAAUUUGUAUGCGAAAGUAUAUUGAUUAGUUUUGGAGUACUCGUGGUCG
# run_conditions: 30 °C
test_readout: self-splicing fitness (ln)

Below are worked cases with known answers.
[[record]]
primary_sequence = "UACCAGCAAUAUUACGCCAA"
recorded_measurement = -2.05

[[record]]
primary_sequence = "AUCUAGCAAUAUUACGCGAA"
recorded_measurement = -2


Let's switch to this sequence now.
Request: Requested field: self-splicing fitness (ln). Item: CAAAAGCAAUAUUACGACCA
Response: -1.95

###

# assay_overview: self-splicing fitness, log relative to wild type (ln ratio); higher = more splicing; Tetrahymena group I intron in knt gene, E. coli kanamycin selection, DiMSum; sequences stand for … in CUCUCU…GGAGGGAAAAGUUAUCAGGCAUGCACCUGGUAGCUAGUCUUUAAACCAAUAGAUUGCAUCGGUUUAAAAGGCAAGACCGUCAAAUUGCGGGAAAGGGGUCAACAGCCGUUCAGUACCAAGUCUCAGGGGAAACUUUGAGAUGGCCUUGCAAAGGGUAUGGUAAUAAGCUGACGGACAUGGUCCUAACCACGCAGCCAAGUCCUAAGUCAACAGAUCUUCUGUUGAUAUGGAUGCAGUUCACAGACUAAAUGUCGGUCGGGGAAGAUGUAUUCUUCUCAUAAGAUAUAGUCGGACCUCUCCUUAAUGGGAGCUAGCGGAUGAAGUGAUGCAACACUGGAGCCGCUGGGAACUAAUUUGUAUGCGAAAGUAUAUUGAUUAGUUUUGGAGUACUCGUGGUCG
# run_conditions: 30 °C
Collected self-splicing fitness (ln) values appear next to each entry.

[[record]]
primary_sequence = "UCCCAGCAAUAUUACGGUCC"
recorded_measurement = -1.68


Request: Requested field: self-splicing fitness (ln). Item: GCAAAGCAAUAUUACGGGUU
Response: -2.11

Request: Requested field: self-splicing fitness (ln). Item: AGUUAGCAAUAUUACGGCGA
Response: 0.115

Request: Requested field: self-splicing fitness (ln). Item: CAGAAGCAAUAUUACGGCUA
Response: 0.172
